Data provenance is patent US10646490B2.

- System: MOLM14
- ASSAY_EXPLANATION: Cancer cell line activity screening
- Format: cell-based
pIC50: −log10 of the molar value.

COMPOUND	pIC50
Clc1nc(Cl)c2[nH]ccc2n1 [Compound 19, 2,4-Dichloropyrrolo[3,2-d]pyrimidine]	5.02
